# assayedTarget: Progesterone receptor (Homo sapiens)
# Sequence (P06401 whole entry): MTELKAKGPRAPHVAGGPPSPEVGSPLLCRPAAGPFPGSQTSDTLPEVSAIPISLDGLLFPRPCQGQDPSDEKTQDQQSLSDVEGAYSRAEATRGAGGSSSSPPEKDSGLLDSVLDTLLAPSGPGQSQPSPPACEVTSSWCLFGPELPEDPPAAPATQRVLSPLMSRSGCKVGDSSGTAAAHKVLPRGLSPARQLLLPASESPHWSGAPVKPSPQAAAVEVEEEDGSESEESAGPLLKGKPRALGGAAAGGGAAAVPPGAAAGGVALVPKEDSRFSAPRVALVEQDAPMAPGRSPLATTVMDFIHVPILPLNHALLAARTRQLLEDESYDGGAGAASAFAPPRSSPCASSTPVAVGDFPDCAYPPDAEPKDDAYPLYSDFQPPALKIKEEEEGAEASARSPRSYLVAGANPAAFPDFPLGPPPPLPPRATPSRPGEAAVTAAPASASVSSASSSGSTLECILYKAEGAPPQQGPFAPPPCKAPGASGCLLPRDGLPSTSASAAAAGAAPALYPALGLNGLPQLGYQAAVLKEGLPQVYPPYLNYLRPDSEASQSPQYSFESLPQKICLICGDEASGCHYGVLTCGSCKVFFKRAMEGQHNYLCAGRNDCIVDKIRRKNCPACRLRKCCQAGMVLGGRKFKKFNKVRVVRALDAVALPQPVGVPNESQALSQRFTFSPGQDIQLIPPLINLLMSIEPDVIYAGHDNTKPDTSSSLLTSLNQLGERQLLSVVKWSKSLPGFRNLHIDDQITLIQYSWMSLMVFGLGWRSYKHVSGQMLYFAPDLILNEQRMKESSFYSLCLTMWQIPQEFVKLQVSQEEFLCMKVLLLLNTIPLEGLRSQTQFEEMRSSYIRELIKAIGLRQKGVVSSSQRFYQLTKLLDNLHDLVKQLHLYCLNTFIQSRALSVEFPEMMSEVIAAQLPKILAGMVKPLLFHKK
assayEndpoint: Ki
Give the value; after it, write the unit.

Q: Looking for the measured Ki of CC1=CC(C)(C)Nc2ccc3c(c21)Cc1c(F)cccc1-3 , can you help?
A: 15 nM
